Every entry's value here was drawn from the Immune Epitope Database (IEDB).

studyTarget: HLA-B*08:01
measurementNotes: IEDB peptide-MHC binding, purified MHC/direct/fluorescence; filed as Kd, often an IC50 or EC50 that approximates it; bounds were set here for any values at or beyond the usual limits of such assays
conditionSummary: source organism: Salmonella enterica
endpointName: Kd

>>> print(df.to_string())
   orderedresidues  studytarget   result
0        ALMRWRHPR  HLA-B*08:01  ≥ 20 µM

###

studyTarget: HLA-A*31:01
measurementNotes: IEDB peptide-MHC binding, purified MHC/direct/fluorescence; filed as Kd, often an IC50 or EC50 that approximates it; bounds were set here for any values at or beyond the usual limits of such assays
conditionSummary: source organism: Coxiella burnetii
pKd: −log10 of the molar value.
endpointName: pKd

In [3]: df
Out[3]:
   orderedresidues  endpointname  result
0        EEMPLVWDL           pKd  ≤ 4.70
